tested on: K24384-001-R-PDC complex spheroid growth; assay: Anticancer human tumor K24384-001-R-PDC patient-derived pancreatic adenocarcinoma cell line growth inhibition [AhR]; settings: second compound 10 µM; first compound 1 µM; hits give low values
Readout: viability, T/C (%)
State the answer as a number, implicitly in %.

The compound CC1(C)CCC(CN2CCN(c3ccc(C(=O)NS(=O)(=O)c4ccc(NCC5CCOCC5)c([N+](=O)[O-])c4)c(Oc4cnc5[nH]ccc5c4)c3)CC2)=C(c2ccc(Cl)cc2)C1 + CC(CO)NC(=O)c1cc(-c2ccc(Cl)cc2)nn(-c2cnn(C)c2)c1=O , tested on K24384-001-R-PDC complex spheroid growth, showed viability, T/C of 110

Record for CC1(C)CCC(CN2CCN(c3ccc(C(=O)NS(=O)(=O)c4ccc(NCC5CCOCC5)c([N+](=O)[O-])c4)c(Oc4cnc5[nH]ccc5c4)c3)CC2)=C(c2ccc(Cl)cc2)C1 + Cc1cncc(-c2nc(NCCc3c[nH]c4ccccc34)c3ncn(C(C)C)c3n2)c1 under target or system K24384-001-R-PDC complex spheroid growth: viability, T/C reported as 19.1

Case O=C(c1cc(Cc2n[nH]c(=O)c3ccccc23)ccc1F)N1CCN(C(=O)C2CC2)CC1 + Cc1ccccc1N=Nc1ccc(NC(=O)c2ccnn2C)c(C)c1 , K24384-001-R-PDC complex spheroid growth, viability, T/C recorded as 72.9

Simply: NS(=O)(=O)OCC1CC(n2ccc3c(NC4CCc5ccccc54)ncnc32)CC1O (stereo not given) + Cc1ccccc1N=Nc1ccc(NC(=O)c2ccnn2C)c(C)c1 , K24384-001-R-PDC complex spheroid growth, viability, T/C = 30.1

Kindly note: K24384-001-R-PDC complex spheroid growth, CC1COCCN1c1cc(-c2ccnn2C)c2ccnc(-c3ccn[nH]3)c2n1 (stereo not given) + Cc1ccccc1N=Nc1ccc(NC(=O)c2ccnn2C)c(C)c1 , viability, T/C value reported: 42.4

---

test system: K24384-001-R-PDC complex spheroid growth; experiment: Anticancer human tumor K24384-001-R-PDC cell line growth inhibition [AhR]; conditions: second compound 3.16 µM; first compound 0.316 µM; hits give low values;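 note: percent of DMSO vehicle-treated spheroid viability set as 100%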
Readout: viability, T/C (%)
# value in %; strip the unit string

// sample COc1cccc2c1C(=O)c1c(O)c3c(c(O)c1C2=O)CC(O)(C(=O)CO)CC3OC1CC(N)C(O)C(C)O1 (configuration not stated) + CC(CO)NC(=O)c1cc(-c2ccc(Cl)cc2)nn(-c2cnn(C)c2)c1=O , its viability, T/C was 24.4

viability, T/C recorded for this compound, COc1cccc2c1C(=O)c1c(O)c3c(c(O)c1C2=O)CC(O)(C(=O)CO)CC3OC1CC(N)C(O)C(C)O1 (configuration not stated) + Cc1ccccc1N=Nc1ccc(NC(=O)c2ccnn2C)c(C)c1 , is 14.3

// sample Nc1ccccc1NC(=O)c1ccc(CNC(=O)OCc2cccnc2)cc1 + Cc1cncc(-c2nc(NCCc3c[nH]c4ccccc34)c3ncn(C(C)C)c3n2)c1 , its viability, T/C was 61.9

For this compound ( COc1cc(C2c3cc4c(cc3C(OC3OC5COC(C)OC5C(O)C3O)C3COC(=O)C23)OCO4)cc(OC)c1O (configuration not stated) + Cc1ccccc1N=Nc1ccc(NC(=O)c2ccnn2C)c(C)c1 ), measured viability, T/C is 64.4

Field viability, T/C (entry O=C(C=Cc1cccc(S(=O)(=O)Nc2ccccc2)c1)NO + Cc1ccccc1N=Nc1ccc(NC(=O)c2ccnn2C)c(C)c1 ) reads 123

Documented viability, T/C of COc1cc(Nc2ncc3c(n2)-c2ccc(Cl)cc2C(c2c(F)cccc2OC)=NC3)ccc1C(=O)O + Cc1ccccc1N=Nc1ccc(NC(=O)c2ccnn2C)c(C)c1 : 69.2

Briefly, viability, T/C measured for O=C(C=Cc1cccc(S(=O)(=O)Nc2ccccc2)c1)NO + CC(CO)NC(=O)c1cc(-c2ccc(Cl)cc2)nn(-c2cnn(C)c2)c1=O : 136

Record COc1cc(C2c3cc4c(cc3C(OC3OC5COC(C)OC5C(O)C3O)C3COC(=O)C23)OCO4)cc(OC)c1O (configuration not stated) + Cc1cncc(-c2nc(NCCc3c[nH]c4ccccc34)c3ncn(C(C)C)c3n2)c1 . Reported viability, T/C: 86.4

Entry Nc1ccn(C2OC(CO)C(O)C2(F)F)c(=O)n1 (configuration not stated) + Cc1ccccc1N=Nc1ccc(NC(=O)c2ccnn2C)c(C)c1 , viability, T/C reported as 41.9

Entry O=C(C=Cc1cccc(S(=O)(=O)Nc2ccccc2)c1)NO + Cc1cncc(-c2nc(NCCc3c[nH]c4ccccc34)c3ncn(C(C)C)c3n2)c1 — recorded viability, T/C = 111

get_value(item= COc1ccc([C@@H](O)c2cc(-c3ncnc4cc(N5CCOCC5)ccc34)c(F)cc2Cl)nn1 + Cc1cncc(-c2nc(NCCc3c[nH]c4ccccc34)c3ncn(C(C)C)c3n2)c1 , readout=viability, T/C) returns 71.1

Record O=C(c1cc(Cc2n[nH]c(=O)c3ccccc23)ccc1F)N1CCN(C(=O)C2CC2)CC1 + Cc1ccccc1N=Nc1ccc(NC(=O)c2ccnn2C)c(C)c1 . Reported viability, T/C: 83.2

---

system: K24384-001-R-PDC complex spheroid growth; test: Anticancer human tumor K24384-001-R-PDC cell line growth inhibition [AhR]; conditions: second compound 1 µM; first compound 3.16 µM; active = viability on the fitted dose curve at most 10% of control; inactive = the rest;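 note: percent of DMSO vehicle-treated spheroid viability set as 100%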
Hello, when you answer, please use one of the following outcomes: active, inactive

Which outcome was entered for the molecule COc1ccc([C@@H](O)c2cc(-c3ncnc4cc(N5CCOCC5)ccc34)c(F)cc2Cl)nn1 + CC(CO)NC(=O)c1cc(-c2ccc(Cl)cc2)nn(-c2cnn(C)c2)c1=O in this test?
inactive

Tell me the assay call for COc1ccc([C@@H](O)c2cc(-c3ncnc4cc(N5CCOCC5)ccc34)c(F)cc2Cl)nn1 + Cc1cncc(-c2nc(NCCc3c[nH]c4ccccc34)c3ncn(C(C)C)c3n2)c1 please.
inactive

Query: recorded result category for COc1cccc2c1C(=O)c1c(O)c3c(c(O)c1C2=O)CC(O)(C(=O)CO)CC3OC1CC(N)C(O)C(C)O1 (stereo not given) + CC(CO)NC(=O)c1cc(-c2ccc(Cl)cc2)nn(-c2cnn(C)c2)c1=O in this test
active

Recorded test outcome, item COc1cccc2c1C(=O)c1c(O)c3c(c(O)c1C2=O)CC(O)(C(=O)CO)CC3OC1CC(N)C(O)C(C)O1 (stereo not given) + Cc1cncc(-c2nc(NCCc3c[nH]c4ccccc34)c3ncn(C(C)C)c3n2)c1
active

Tell me the assay call for COc1cc(Nc2ncc3c(n2)-c2ccc(Cl)cc2C(c2c(F)cccc2OC)=NC3)ccc1C(=O)O + Cc1cncc(-c2nc(NCCc3c[nH]c4ccccc34)c3ncn(C(C)C)c3n2)c1 please.
inactive

---

system: K24384-001-R-PDC complex spheroid growth; assay: Anticancer human tumor K24384-001-R-PDC cell line growth inhibition [AhR]; conditions: second compound 1 µM; first compound 0.1 µM; hits give low values;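 note: percent of DMSO vehicle-treated spheroid viability set as 100%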
Readout: viability, T/C (%)
Numeric only. Scale: %

# compound CC1(C)CCC(CN2CCN(c3ccc(C(=O)NS(=O)(=O)c4ccc(NCC5CCOCC5)c([N+](=O)[O-])c4)c(Oc4cnc5[nH]ccc5c4)c3)CC2)=C(c2ccc(Cl)cc2)C1 + Cc1cncc(-c2nc(NCCc3c[nH]c4ccccc34)c3ncn(C(C)C)c3n2)c1 ; its viability, T/C = 157

// viability, T/C lookup, compound = Nc1ccccc1NC(=O)c1ccc(CNC(=O)OCc2cccnc2)cc1 + Cc1ccccc1N=Nc1ccc(NC(=O)c2ccnn2C)c(C)c1 , result: 94.7

Entry Nc1ccn(C2OC(CO)C(O)C2(F)F)c(=O)n1 (configuration not stated) + Cc1cncc(-c2nc(NCCc3c[nH]c4ccccc34)c3ncn(C(C)C)c3n2)c1 , viability, T/C reported as 111

Record COc1cc(C2c3cc4c(cc3C(OC3OC5COC(C)OC5C(O)C3O)C3COC(=O)C23)OCO4)cc(OC)c1O (configuration not stated) + Cc1cncc(-c2nc(NCCc3c[nH]c4ccccc34)c3ncn(C(C)C)c3n2)c1 , field viability, T/C: 90.2

Reported viability, T/C ( O=C(C=Cc1cccc(S(=O)(=O)Nc2ccccc2)c1)NO + Cc1cncc(-c2nc(NCCc3c[nH]c4ccccc34)c3ncn(C(C)C)c3n2)c1 ) = 141

Sample O=C(C=Cc1cccc(S(=O)(=O)Nc2ccccc2)c1)NO + Cc1ccccc1N=Nc1ccc(NC(=O)c2ccnn2C)c(C)c1 ; viability, T/C observed: 135

For Nc1ccn(C2OC(CO)C(O)C2(F)F)c(=O)n1 (configuration not stated) + CC(CO)NC(=O)c1cc(-c2ccc(Cl)cc2)nn(-c2cnn(C)c2)c1=O the compound record lists viability, T/C as 77.4

Given item CC(C)c1c(-c2ccccc2)nc2c(C#N)c[nH]n2c1=O + Cc1cncc(-c2nc(NCCc3c[nH]c4ccccc34)c3ncn(C(C)C)c3n2)c1 , the value recorded as its viability, T/C is 110

// field: viability, T/C; key: Cn1ncnc1C1c2n[nH]c(=O)c3cc(F)cc(c23)NC1c1ccc(F)cc1 (configuration not stated) + Cc1cncc(-c2nc(NCCc3c[nH]c4ccccc34)c3ncn(C(C)C)c3n2)c1 ; value = 66.8

// viability, T/C value for NS(=O)(=O)OCC1CC(n2ccc3c(NC4CCc5ccccc54)ncnc32)CC1O (configuration not stated) + CC(CO)NC(=O)c1cc(-c2ccc(Cl)cc2)nn(-c2cnn(C)c2)c1=O : 162

The compound identified as Nc1ccccc1NC(=O)c1ccc(CNC(=O)OCc2cccnc2)cc1 + CC(CO)NC(=O)c1cc(-c2ccc(Cl)cc2)nn(-c2cnn(C)c2)c1=O registered its viability, T/C at 94.8

Value of measured viability, T/C for the entry CC1(C)CCC(CN2CCN(c3ccc(C(=O)NS(=O)(=O)c4ccc(NCC5CCOCC5)c([N+](=O)[O-])c4)c(Oc4cnc5[nH]ccc5c4)c3)CC2)=C(c2ccc(Cl)cc2)C1 + CC(CO)NC(=O)c1cc(-c2ccc(Cl)cc2)nn(-c2cnn(C)c2)c1=O : 139
